- experimental target: human PPARα (Homo sapiens, UniProt Q07869)
- Construct: human PPARα (including amino acid residues 167-468); expressed in transfected cells; host or cells: COS-1
- Sequence (Q07869 167-468): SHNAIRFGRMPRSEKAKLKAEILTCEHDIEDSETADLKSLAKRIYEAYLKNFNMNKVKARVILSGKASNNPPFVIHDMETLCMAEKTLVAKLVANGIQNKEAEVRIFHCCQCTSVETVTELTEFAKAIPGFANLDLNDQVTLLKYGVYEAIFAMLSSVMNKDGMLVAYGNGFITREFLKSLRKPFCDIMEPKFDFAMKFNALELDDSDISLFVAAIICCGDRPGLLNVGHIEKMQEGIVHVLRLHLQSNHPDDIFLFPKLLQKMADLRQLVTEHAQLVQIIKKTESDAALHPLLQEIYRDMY
- experimental protocol: GAL4-PPARα luciferase reporter assay in COS-1 cells
- Type: cell-based
- condition notes: relative luciferase activity, vehicle (DMSO) control regarded as 1, 24 hours
- Excerpt: By inserting a gene fragment encoding the ligand binding domain of human PPARα (including amino acid residues 167-468) or a gene fragment encoding the ligand binding domain of human PPARγ (including amino acids residue 204-505) into a multicloning site of expressing vector pM containing DNA binding domain of yeast GAL4 protein (Clonetech), a vector plasmid expressing a fused protein of GAL4 protein DNA binding domain and human PPARα or γ ligand binding domain. […]
Assignment: determine reported PPARα-agonistic activity (10 μM) for the given molecules.
One number for each entry.

- Cc1ccc(C(=O)c2cccn2C/C=C/c2ccc(CO[C@H](C)C(=O)O)cc2)cc1: 10.1
- Cc1ccc(C(=O)c2cccn2C/C=C/c2ccc(COC(C)(C)C(=O)O)cc2)cc1: 12.6

For every record below, what is its PPARα-agonistic activity (10 μM)?
1. Cc1ccc(C(=O)c2cccn2C/C=C/c2cccc(CO[C@@H](C)C(=O)O)c2)cc1
2. Cc1ccc(C(=O)c2cccn2C/C=C/c2cccc(COCC(=O)O)c2)cc1
3. Cc1ccc(C(=O)c2cccn2C/C=C/c2cccc(COC(C(=O)O)c3ccccc3)c2)cc1 (centres unmarked)

10.8
12.6
7.8
